Catalogue of binders with associated peptide exchange yield
# TARGET_DESC: T1, HLA-B*07:02 (human)
# T1 construct: also called peptide-receptive MHC molecules
# TEST_DETAILS: UV-exchange b2m ELISA; exchange-yield grade
# Excerpt: Candidate peptides for T cell based therapies according to the present invention were further tested for their MHC binding capacity (affinity). The individual peptide-MHC complexes were produced by UV-ligand exchange, where a UV-sensitive peptide is cleaved upon UV-irradiation, and exchanged with the peptide of interest as analyzed. Only peptide candidates that can effectively bind and stabilize the peptide-receptive MHC molecules prevent dissociation of the MHC complexes. […]
EXPERIMENTAL_ENDPOINT: peptide exchange yield

BINDER	EXPERIMENTAL_ENDPOINT	READOUT_VALUE
VPVYILLDEM	peptide exchange yield	20 to 50%
FPYSEVTTL	peptide exchange yield	50 to 75%
SPMTSLLTSGL	peptide exchange yield	50 to 75%
EPKTATVL	peptide exchange yield	20 to 50%
